Test: NCI Yeast Anticancer Drug Screen. Data for the rad50 strain (AID 155);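 note: 0% = growth of vehicle-only cultures of the same strain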
Details: S. cerevisiae rad50 strain growth inhibition; at 50.0 µM (retest, dose inferred, filed as 5.0); stronger effect = higher value
Compounds without any hit were thinned out: in the full panel of roughly 79,000, 15% have a hit.
Use Yes when the recorded growth inhibition is no lower than 90%; use No when it is lower.

>>> print(df.to_string())
                          smiles_repr  answer_label
0  O=C(/C=C/c1ccccc1)c1cc2c(cc1O)OCO2            No
1      N#CC(C#N)=C/C=C/c1c(Cl)cccc1Cl            No
2                   COc1ccc(CCCCI)cc1           Yes

Q: Confirm if growth inhibition reported for the compound `CCCCCCCCC1(C(=O)OCCN(CC)CC)CCCCC1` is 90% or above.
A: Yes

====

Test: NCI Yeast Anticancer Drug Screen. Data for the bub3 strain (AID 167)
Conditions: S. cerevisiae bub3 mutant strain, at 50.0 µM (retest, dose inferred, filed as 5.0)
Compounds without any hit were thinned out: in the full panel of roughly 79,000, 15% have a hit. Active and inactive are the calls of the source. No stated cut-off is given here; in the data, active means growth inhibition above about 70%; inactive means the rest.
Output constraint: value belongs to TRUE = active, FALSE = inactive

In [3]: df
Out[3]:
                                   molecule  answer_label
0  COc1ccc(C=C(C(=O)c2ccccc2)C(=O)c2ccccc2)cc1          TRUE

Continue with the molecule presented below.
Q: Which outcome was entered for the molecule `CCN(CC)CCNc1ccc(OC)c2cccnc12` in this test?
A: FALSE

====

Assay: NCI Yeast Anticancer Drug Screen. Data for the sgs1 mgt1 strain (AID 161);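 note: 0% = growth of cultures given vehicle only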
Details: S. cerevisiae sgs1 mgt1 strain, at 50.0 µM (retest, dose inferred, filed as 5.0), stronger effect = higher value
Protocol: Growth inhibition of yeast strains with defined genetic alterations is measured as a screen for potential anti-cancer activity. Selected strains with alterations in DNA damage repair or cell cycle control were exposed to compounds and growth inhibition was measured relative to vehicle treated controls. The strain used in this assay is sgs1 mgt1
About 79,000 compounds went through this panel and 15% of them were active in at least one assay; those are over-represented in the sample as a whole.
property-label: growth inhibition (%)
Record the value in %, omitting the unit from your answer.

molecule	growth inhibition / %
COC(=O)c1ccc(-c2ccccc2)cc1	82
CCCCCCCCCCC(NC(C)=O)(C(=O)OCC)C(=O)OCC	99
Cc1nc2c(nc1C)C(=O)C1=C(C2=O)C2C=CC1CC2	94
C/C(=N/O)C1CC(CCC2([N+](=O)[O-])CCC(C)(O)C(/C(C)=N/O)C2)([N+](=O)[O-])CCC1(C)O (stereo unspecified)	-4
COc1cccc2nc3c(C(=O)NCCN(C)C)cccc3cc12	56
CCC(=C(c1ccc(OCCN(C)C)cc1)c1cccc(O)c1)c1ccccc1 (mixture of isomers)	98

Now examine the next entry.
Q: Entry CCCCOCN(CC(CC)CCCC)CC(CC)CCCC (stereo unspecified) needs its growth inhibition filled in; supply it.
A: 29

====

Test: NCI Yeast Anticancer Drug Screen. Data for the sgs1 mgt1 strain (AID 161);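 note: 0% = growth of cultures given vehicle only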
Conditions: S. cerevisiae sgs1 mgt1 strain, at 5.0 µM (retest, dose inferred, filed as 0.5), stronger effect = higher value
Compounds without any hit were thinned out: in the full panel of roughly 79,000, 15% have a hit.
Use yes (1) when the recorded growth inhibition is no lower than 20%; use no (0) when it is lower.

Examples with answers:
>>> print(df.to_string())
                                   compound  answer_label
0  CC(O)C(NC(=O)OCc1ccccc1)C(=O)OC(c1ccccc1)c1ccccc1 (configuration not stated)        no (0)
1   CCOC(=O)C(=N\Nc1ccccc1C)/C(C)=N\NC(N)=S        no (0)
2  O=C(Oc1c([N+](=O)[O-])cc(-c2ccc([N+](=O)[O-])cc2)cc1[N+](=O)[O-])c1ccccc1       yes (1)

Q: Confirm if growth inhibition reported for the compound `ClC(Cl)(Cl)C1=CC2c3ccccc3C1c1ccccc12` is 20% or above.
A: no (0)

Q: Confirm if growth inhibition reported for the compound `O=C(O)CCCCCCCCCCOc1ccc(Cl)cc1Cl` is 20% or above.
A: no (0)

Q: Confirm if growth inhibition reported for the compound CN1c2ccccc2C(c2ccccc2)c2ccc(Nc3ccccc3)cc21 (configuration not stated) is 20% or above.
A: yes (1)

Q: Confirm if growth inhibition reported for the compound COc1cccc2c1OC(c1ccc(C#N)cc1)C([N+](=O)[O-])=C2 (configuration not stated) is 20% or above.
A: yes (1)

Q: Confirm if growth inhibition reported for the compound CC(C)C(Sc1nc(-c2ccccc2)c(-c2ccccc2)[nH]1)c1n[nH]c(=S)n1-c1ccccc1 (configuration not stated) is 20% or above.
A: no (0)

Q: Confirm if growth inhibition reported for the compound `Cc1ccc([Si](O)(c2ccc(C)cc2)c2ccc(C)cc2)cc1` is 20% or above.
A: yes (1)
